- Protocol Summary: Microsome incubation, rat liver microsomes (metabolic stability)
- Type: in vitro ADME
- Conditions: maximal achievable bioavailability = 1−E (hepatic extraction ratio), extrapolated from rat microsomal clearance
Measured Attribute: MAB (rat) (%)

Below are worked cases with known answers.
Molecule: O=C(Nc1nc(C(F)(F)F)co1)C1c2ccccc2Oc2c(F)cccc21 (racemic)
Experimental Value: 48
--
Molecule: O=C(Nc1nc(C(F)(F)F)co1)C1c2cc(F)ccc2Oc2ccc(F)cc21
Experimental Value: 77
--
Molecule: O=C(Nc1nc(C(F)(F)F)co1)C1c2ccc(F)cc2Oc2cc(F)ccc21
Experimental Value: 63
--
Molecule: O=C(Nc1ncc(C(F)(F)F)o1)C1c2ccccc2Oc2ccc(F)cc21 (racemic)
Experimental Value: 43
--
Molecule: O=C(Nc1ncc(C(F)(F)F)o1)C1c2cc(F)ccc2Oc2ccc(F)cc21
Experimental Value: 54

I = O=C(Nc1ncc(C(F)(F)F)o1)C1c2ccccc2Oc2c(F)cccc21 (racemic)
II = O=C(Nc1nc(C(F)(F)F)co1)C1c2ccccc2Oc2ccccc21
I would appreciate it if you could say which entry, I or II , has the lower MAB (rat) value. State your choice using its label.
II

Where do these numbers come from? They come from patent US7119113B2.
